Quick list: inhibition per entry.
system: Mycobacterium tuberculosis; experiment: Inhibition of Mycobacterium tuberculosis His6-tagged InhA expressed in Escherichia coli BL21 using 2-trans-dodecenoyl-CoA as substrate assessed as conversion of NADH to NAD+ at 50 uM relative to control
Metric Name: inhibition (%)

Compound | Test System | Uom | Reported
COc1ccc2c(c1)-c1ccccc1C2N1CCN(C(=O)c2ccccc2)CC1 (racemic) | Mycobacterium tuberculosis | % | 92
O=C(Nc1ccc([N+](=O)[O-])cc1)N1CCN(C2c3ccccc3-c3ccccc32)CC1 | Mycobacterium tuberculosis | % | 33
CCCCCCCCC(=O)N1CCN(C2c3ccccc3-c3ccccc32)CC1 | Mycobacterium tuberculosis | % | 47
CP(=O)(c1ccccc1)N1CCN(C2c3ccccc3-c3ccccc32)CC1 (racemic) | Mycobacterium tuberculosis | % | 17
S=C(Nc1ccccc1)N1CCN(C2c3ccccc3-c3ccccc32)CC1 | Mycobacterium tuberculosis | % | 57
CCCCCCc1ccc2c(c1)-c1ccccc1C2N1CCN(C(=O)c2ccccc2)CC1 (racemic) | Mycobacterium tuberculosis | % | 60
CCCCCCCCc1ccc2c(c1)C(N1CCN(C(=O)c3ccccc3)CC1)c1ccccc1-2 (racemic) | Mycobacterium tuberculosis | % | 54
CCCCCCOc1ccc2c(c1)-c1ccccc1C2C1CCN(C(=O)c2ccccc2)CC1 (racemic) | Mycobacterium tuberculosis | % | 64
CCCOc1ccc2c(c1)C(N1CCN(C(=O)c3ccccc3)CC1)c1ccccc1-2 (racemic) | Mycobacterium tuberculosis | % | 88
CCCCC(=O)N1CCN(C2c3ccccc3-c3ccccc32)CC1 | Mycobacterium tuberculosis | % | 75
O=C(c1ccccc1)N1CCN(C2c3ccccc3-c3ccccc32)CC1 | Mycobacterium tuberculosis | % | 94

###

Quick list: MIC per entry.
test system: Mycobacterium tuberculosis; test: Antimycobacterial activity against Mycobacterium tuberculosis H37Rv after 21 days by microbroth dilution method in presence of 3 ug/ml efflux pump inhibitor reserpine; type: functional; settings: 504 h

Molecule | Relational Operator | MIC [µM]
CCCCCCOc1ccc2c(c1)-c1ccccc1C2C1CCN(C(=O)c2ccccc2)CC1 (racemic) | = | 22.1
O=C(c1ccc2[nH]ccc2c1)N1CCN(C2c3ccccc3-c3ccccc32)CC1 | = | 25.4
CCCCCCOc1ccc2c(c1)-c1ccccc1C2N1CCN(C(=O)c2ccccc2)CC1 (single isomer, unassigned; enantiomer 2) | < | 2.7
O=C(c1ccccc1)N1CCN(C2c3ccccc3-c3ccccc32)CC1 | = | 56.5

###

system: Mycobacterium tuberculosis; assay: Inhibition of Mycobacterium tuberculosis His6-tagged InhA expressed in Escherichia coli BL21 using 2-trans-dodecenoyl-CoA as substrate assessed as conversion of NADH to NAD+ at 50 uM relative to control
Returns y if the recorded inhibition is greater than or equal to 30%, and n otherwise.

Molecule | Label
O=C1CN(C2c3ccccc3-c3ccccc32)CCN1C(=O)c1ccccc1 | n
COP(=O)(c1ccccc1)N1CCN(C2c3ccccc3-c3ccccc32)CC1 (racemic) | n
S=C(c1ccccc1)N1CCN(C2c3ccccc3-c3ccccc32)CC1 | y
CCCCNC(=O)N1CCN(C2c3ccccc3-c3ccccc32)CC1 | y
O=S(=O)(c1ccccc1)N1CCN(C2c3ccccc3-c3ccccc32)CC1 | n

###

test: Inhibition of Mycobacterium tuberculosis His6-tagged InhA expressed in Escherichia coli BL21 using 2-trans-dodecenoyl-CoA as substrate assessed as conversion of NADH to NAD+
pIC50: −log10 of the molar value.
Quick list: pIC50 per entry.
Metric Name: pIC50

Compound | Reported
COc1ccc2c(c1)-c1ccccc1C2N1CCN(C(=O)c2ccccc2)CC1 (stereo in doubt; 31b) | 5.68
O=C(c1ccccc1)N1CCN(C2c3ccccc3-c3cc(OCc4ccccc4)ccc32)CC1 (racemic) | 6.00
CCCOc1ccc2c(c1)-c1ccccc1C2N1CCN(C(=O)c2ccccc2)CC1 (racemic) | 6.00
CCCOc1ccc2c(c1)C(N1CCN(C(=O)c3ccccc3)CC1)c1ccccc1-2 (racemic) | 5.89

The values you see were collected from ChEMBL document CHEMBL3608306.
